Target: BTK enzyme (recombinant full-length BTK, hBTK) (Homo sapiens, UniProt Q06187)
Construct: recombinant protein from baculovirus-transfected Sf9 cells: full-length BTK, 6HIS-tag cleaved; 6HIS (cleaved yes); made in house; host or cells: baculovirus-transfected Sf9 cells
Sequence (Q06187 whole entry): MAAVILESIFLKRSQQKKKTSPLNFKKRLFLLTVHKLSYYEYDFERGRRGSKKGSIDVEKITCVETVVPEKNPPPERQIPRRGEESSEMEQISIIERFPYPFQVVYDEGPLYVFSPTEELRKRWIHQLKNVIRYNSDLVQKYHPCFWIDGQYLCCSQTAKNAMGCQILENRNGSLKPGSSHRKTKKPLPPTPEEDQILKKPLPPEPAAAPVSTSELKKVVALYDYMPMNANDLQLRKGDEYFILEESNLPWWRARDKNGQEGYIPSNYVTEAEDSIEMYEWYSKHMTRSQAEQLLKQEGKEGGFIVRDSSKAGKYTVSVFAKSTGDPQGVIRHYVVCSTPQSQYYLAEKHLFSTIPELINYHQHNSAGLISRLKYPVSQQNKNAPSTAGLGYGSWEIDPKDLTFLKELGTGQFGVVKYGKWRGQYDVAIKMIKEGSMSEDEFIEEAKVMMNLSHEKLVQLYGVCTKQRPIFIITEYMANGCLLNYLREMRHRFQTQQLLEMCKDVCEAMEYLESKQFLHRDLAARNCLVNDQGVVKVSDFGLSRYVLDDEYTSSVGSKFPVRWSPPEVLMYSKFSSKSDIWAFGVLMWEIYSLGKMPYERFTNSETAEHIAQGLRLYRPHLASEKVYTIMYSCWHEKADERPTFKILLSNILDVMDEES
Assay: BTK enzyme activity assay, LANCE TR-FRET
Assay type: biochemical
Conditions: 50 pM hBTK, 2 μM biotin-A5-peptide, 25 μM ATP; 60 min compound & enzyme incubation; read-out: IC50 BTK activity value
pIC50: −log10 of the molar value.
measured metric: pIC50

Study these solved cases before continuing.
[[record]]
compound = "Nc1nccn2c([C@@H]3CC[C@H]4CCC(=O)N4C3)nc(-c3ccc(C(=O)Nc4cc(C(F)(F)F)[nH]n4)cc3)c12"
measured_metric = "pIC50"
quantitative_readout = 7.43

[[record]]
compound = "Cn1nc(NC(=O)c2ccc(-c3nc([C@@H]4CC[C@H]5CCC(=O)N5C4)n4ccnc(N)c34)c(OC3CNC3)c2)cc1C(F)(F)F"
measured_metric = "pIC50"
quantitative_readout = 7.01

[[record]]
compound = "CCN1CC(=O)N2C[C@H](c3nc(-c4ccc(C(=O)Nc5cc(C(F)(F)F)ccn5)cc4)c4c(N)nccn34)CC[C@H]2C1"
measured_metric = "pIC50"
quantitative_readout = 9.57


(I) Cc1cnc(NC(=O)c2ccc(-c3nc([C@@H]4CC[C@H]5CCC(=O)N5C4)n4ccnc(N)c34)cc2)s1
(II) Nc1nccn2c([C@H]3CN4C(=O)CC[C@@H]4CO3)nc(-c3ccc(C(=O)Nc4cc(C(F)(F)F)ccn4)cc3)c12
(III) Nc1nccn2c([C@H]3CC[C@@H]4C[C@@H](O)C(=O)N4C3)nc(-c3ccc(C(=O)Nc4cc(C(F)(F)F)ccn4)cc3)c12
(IV) Nc1nccn2c([C@@H]3CC[C@@H]4CNCC(=O)N4C3)nc(-c3ccc(C(=O)Nc4cc(C(F)(F)F)ccn4)cc3)c12
(V) Cc1cc(C(=O)Nc2cc(C(F)(F)F)ccn2)ccc1-c1nc([C@@H]2CC[C@H]3CCC(=O)N3C2)n2ccnc(N)c12
Arrange these 5 compounds in increasing order of pIC50. List labels; respect the requested ordering. IV, III, I, V, II
(IV: 8.02, III: 8.43, I: 8.66, V: 9.34, II: 9.59)
